Attribute: IC50
Target: muscarinic receptors (heart) (Rattus norvegicus)
Construct: The whole heart was cut up with scissors; All the organs were then homogenised in a Potter apparatus
Sequence (P10980 1-466): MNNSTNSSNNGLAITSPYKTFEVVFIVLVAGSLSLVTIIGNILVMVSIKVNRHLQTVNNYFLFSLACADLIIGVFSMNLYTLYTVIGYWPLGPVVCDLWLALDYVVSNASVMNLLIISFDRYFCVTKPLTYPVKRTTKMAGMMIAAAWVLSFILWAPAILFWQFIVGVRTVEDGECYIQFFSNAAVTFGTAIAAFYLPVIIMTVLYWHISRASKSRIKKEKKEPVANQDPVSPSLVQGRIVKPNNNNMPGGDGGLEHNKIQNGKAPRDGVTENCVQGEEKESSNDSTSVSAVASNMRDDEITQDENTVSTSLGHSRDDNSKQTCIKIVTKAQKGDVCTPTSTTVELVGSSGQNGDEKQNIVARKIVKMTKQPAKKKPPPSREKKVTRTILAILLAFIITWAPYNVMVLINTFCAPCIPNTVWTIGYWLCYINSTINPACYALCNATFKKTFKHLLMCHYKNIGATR
Experiment: Receptor binding test in vitro, heart (3H-N-methylscopolamine displacement)
Details: whole heart; 0.3 nanomolar 3H-NMS; 30° C.; 45 minutes; pH 7.4
QUANTITY_MEASURED: IC50 (nM)

MOLECULE: O=C1Nc2cccnc2N(C(=O)CN2CCC(CCCCN3CCCCC3)CC2)c2ccccc21 [C]
UNIT_TEXT: nM
REPORTED_RESULT: 9
//
MOLECULE: Cc1scc2c1N(C(=O)CN1CCC(CCCN3CCCCC3)CC1)c1ccccc1NC2=O [A]
UNIT_TEXT: nM
REPORTED_RESULT: 5
//
MOLECULE: O=C1Nc2cccnc2N(C(=O)CN2CCC(CCCN3CCCCC3)CC2)c2ccccc21 [B]
UNIT_TEXT: nM
REPORTED_RESULT: 20
//
MOLECULE: CN1CCC(CCCC2CCN(CC(=O)N3c4ccccc4C(=O)Nc4cccnc43)CC2)CC1 [D]
UNIT_TEXT: nM
REPORTED_RESULT: 50

###

target: muscarinic receptors (cerebral cortex); assay: Receptor binding test in vitro, cerebral cortex (3H-N-methylscopolamine displacement); conditions: 0.3 nanomolar 3H-NMS, 30° C., 45 minutes, pH 7.4
pIC50: −log10 of the molar value.
QUANTITY_MEASURED: pIC50

COMPOUND: O=C1Nc2cccnc2N(C(=O)CN2CCC(CCCN3CCCCC3)CC2)c2ccccc21 [B]
QUANTITY_MEASURED: pIC50
REPORTED_RESULT: 6.70
//
COMPOUND: O=C1Nc2cccnc2N(C(=O)CN2CCC(CCCCN3CCCCC3)CC2)c2ccccc21 [C]
QUANTITY_MEASURED: pIC50
REPORTED_RESULT: 7.30
//
COMPOUND: CN1CCC(CCCC2CCN(CC(=O)N3c4ccccc4C(=O)Nc4cccnc43)CC2)CC1 [D]
QUANTITY_MEASURED: pIC50
REPORTED_RESULT: 6.30
//
COMPOUND: Cc1scc2c1N(C(=O)CN1CCC(CCCN3CCCCC3)CC1)c1ccccc1NC2=O [A]
QUANTITY_MEASURED: pIC50
REPORTED_RESULT: 7.22
